Please provide measured binding signal for the entries that follow.
targetOfAssay: SALL4 ZFC4 G921D (HT-SELEX) (Mus musculus, UniProt Q8BX22 870-940, G921D)
Sequence: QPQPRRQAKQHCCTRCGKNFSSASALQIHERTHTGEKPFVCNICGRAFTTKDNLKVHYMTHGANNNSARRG
protocolText: HT-SELEX; high values mean tight binding
experimentalSetup: protein: recombinant; vector His6-GST; dsDNA, one strand shown
API: value field is a number in fold-change vs cycle 0; no unit string.

binding signal measured on GAAAAC = 1.19

// sample CATGAA , its binding signal was 1.36

// sample ACATGT , its binding signal was 1.4

So, ACTAGG ? Its binding signal was 1.01

binding signal recorded for this sequence, ACTTCA , is 1.4

The sequence listed as AAGGAT shows binding signal equal to 1.54

Per the record, GAGGAA has binding signal of 1.03

The recorded binding signal for AAGATG is 1.39

Data point: AGCATA ; binding signal = 1.26

Looking up CCTATA , I see its binding signal listed as 1.35

Looking up AAGGGT , I found its binding signal recorded as 1.01
